Reported self-splicing fitness (ln) by item:
assay: self-splicing fitness, log relative to wild type (ln ratio); higher = more splicing; Tetrahymena group I intron in knt gene, E. coli kanamycin selection, DiMSum; sequences stand for … in CUCUCU…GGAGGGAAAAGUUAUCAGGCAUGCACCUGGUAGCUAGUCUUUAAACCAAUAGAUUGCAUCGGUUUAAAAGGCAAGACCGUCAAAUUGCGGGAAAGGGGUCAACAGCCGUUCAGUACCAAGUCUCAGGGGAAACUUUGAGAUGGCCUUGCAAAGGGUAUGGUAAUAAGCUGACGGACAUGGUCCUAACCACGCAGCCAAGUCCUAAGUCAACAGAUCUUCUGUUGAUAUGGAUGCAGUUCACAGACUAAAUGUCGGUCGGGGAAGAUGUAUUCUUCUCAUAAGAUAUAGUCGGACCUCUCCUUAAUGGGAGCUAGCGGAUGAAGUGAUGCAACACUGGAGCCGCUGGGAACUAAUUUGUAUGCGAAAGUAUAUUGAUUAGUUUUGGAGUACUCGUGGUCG;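 note: selection with 25 µg/mL kanamycin versus none on LB agar overnight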
test-settings: 30 °C

[
  {
    "sequence": "GUUAAGCAAUAUUACGUCCU",
    "self-splicing fitness (ln)": -0.303
  },
  {
    "sequence": "AGAGAGCAAUAUUACGACAU",
    "self-splicing fitness (ln)": -2.48
  },
  {
    "sequence": "CACGAGCAAUAUUACGACGG",
    "self-splicing fitness (ln)": -1.6
  },
  {
    "sequence": "UUCCAGCAAUAUUACGACAU",
    "self-splicing fitness (ln)": -2.87
  },
  {
    "sequence": "GAGUAGCAAUAUUACGAUAG",
    "self-splicing fitness (ln)": -3.53
  },
  {
    "sequence": "CAGUAGCAAUAUUACGACCA",
    "self-splicing fitness (ln)": -0.792
  },
  {
    "sequence": "ACCGAGCAAUAUUACGCAUG",
    "self-splicing fitness (ln)": -2.69
  },
  {
    "sequence": "UGGUAGCAAUAUUACGAUGU",
    "self-splicing fitness (ln)": -3.19
  },
  {
    "sequence": "GGACAGCAAUAUUACGUGCG",
    "self-splicing fitness (ln)": -0.326
  },
  {
    "sequence": "AGUGAGCAAUAUUACGAAUU",
    "self-splicing fitness (ln)": -3.18
  },
  {
    "sequence": "GUCCAGCAAUAUUACGACAG",
    "self-splicing fitness (ln)": -3.57
  },
  {
    "sequence": "AUUAAGCAAUAUUACGCCAU",
    "self-splicing fitness (ln)": -1.86
  },
  {
    "sequence": "CCCUAGCAAUAUUACGUUUG",
    "self-splicing fitness (ln)": -3.93
  },
  {
    "sequence": "GGGCAGCAAUAUUACGACUG",
    "self-splicing fitness (ln)": -2.84
  },
  {
    "sequence": "UUACAGCAAUAUUACGUCGA",
    "self-splicing fitness (ln)": -0.899
  },
  {
    "sequence": "AGCAAGCAAUAUUACGUCGU",
    "self-splicing fitness (ln)": -1.72
  },
  {
    "sequence": "CAAAAGCAAUAUUACGCACC",
    "self-splicing fitness (ln)": -2.48
  },
  {
    "sequence": "GUGCAGCAAUAUUACGGUGU",
    "self-splicing fitness (ln)": -3.08
  },
  {
    "sequence": "ACCAAGCAAUAUUACGUGGA",
    "self-splicing fitness (ln)": -2.92
  },
  {
    "sequence": "AGUUAGCAAUAUUACGACCG",
    "self-splicing fitness (ln)": -0.776
  },
  {
    "sequence": "GCUCAGCAAUAUUACGAUUU",
    "self-splicing fitness (ln)": -0.259
  },
  {
    "sequence": "UUCAAGCAAUAUUACGCGAG",
    "self-splicing fitness (ln)": -2.19
  },
  {
    "sequence": "CACCAGCAAUAUUACGAAUA",
    "self-splicing fitness (ln)": -3.93
  },
  {
    "sequence": "GGACAGCAAUAUUACGAUUG",
    "self-splicing fitness (ln)": -1.09
  },
  {
    "sequence": "AAAGAGCAAUAUUACGUUCU",
    "self-splicing fitness (ln)": -2.77
  },
  {
    "sequence": "CGUGAGCAAUAUUACGAAGG",
    "self-splicing fitness (ln)": -2.37
  },
  {
    "sequence": "UGUCAGCAAUAUUACGGUUC",
    "self-splicing fitness (ln)": -3.07
  },
  {
    "sequence": "UUUUAGCAAUAUUACGGGGA",
    "self-splicing fitness (ln)": -1.56
  },
  {
    "sequence": "UACUAGCAAUAUUACGGUAG",
    "self-splicing fitness (ln)": -1.92
  },
  {
    "sequence": "ACAUAGCAAUAUUACGAUCC",
    "self-splicing fitness (ln)": -1.77
  },
  {
    "sequence": "GUUCAGCAAUAUUACGGUUU",
    "self-splicing fitness (ln)": -0.523
  },
  {
    "sequence": "GAAUAGCAAUAUUACGGAUU",
    "self-splicing fitness (ln)": -0.925
  },
  {
    "sequence": "CUGAAGCAAUAUUACGGAAA",
    "self-splicing fitness (ln)": -3.46
  },
  {
    "sequence": "UGUCAGCAAUAUUACGAAUA",
    "self-splicing fitness (ln)": -0.932
  },
  {
    "sequence": "UAAGAGCAAUAUUACGUCUG",
    "self-splicing fitness (ln)": -1.54
  },
  {
    "sequence": "CCUGAGCAAUAUUACGUAUA",
    "self-splicing fitness (ln)": -3.53
  },
  {
    "sequence": "CAGUAGCAAUAUUACGGCUG",
    "self-splicing fitness (ln)": -3.85
  },
  {
    "sequence": "CGAAAGCAAUAUUACGCUAC",
    "self-splicing fitness (ln)": -2.53
  },
  {
    "sequence": "CUUCAGCAAUAUUACGCCGC",
    "self-splicing fitness (ln)": -3.14
  },
  {
    "sequence": "GCUCAGCAAUAUUACGCCCA",
    "self-splicing fitness (ln)": -1.99
  },
  {
    "sequence": "AUGUAGCAAUAUUACGUCGG",
    "self-splicing fitness (ln)": -3.01
  },
  {
    "sequence": "UUUAAGCAAUAUUACGCGUC",
    "self-splicing fitness (ln)": -1.9
  },
  {
    "sequence": "UUACAGCAAUAUUACGCACG",
    "self-splicing fitness (ln)": -1.13
  },
  {
    "sequence": "UCGUAGCAAUAUUACGACCA",
    "self-splicing fitness (ln)": -1.35
  },
  {
    "sequence": "AUCGAGCAAUAUUACGACGC",
    "self-splicing fitness (ln)": -1.28
  },
  {
    "sequence": "CCAAAGCAAUAUUACGCUAG",
    "self-splicing fitness (ln)": -3.78
  },
  {
    "sequence": "GUAAAGCAAUAUUACGGUGA",
    "self-splicing fitness (ln)": -0.896
  },
  {
    "sequence": "UUUGAGCAAUAUUACGGACU",
    "self-splicing fitness (ln)": -4.55
  },
  {
    "sequence": "GUGGAGCAAUAUUACGUGCU",
    "self-splicing fitness (ln)": -3.68
  },
  {
    "sequence": "UCUUAGCAAUAUUACGCUUC",
    "self-splicing fitness (ln)": -4.09
  },
  {
    "sequence": "GGAAAGCAAUAUUACGGUUU",
    "self-splicing fitness (ln)": -1.02
  },
  {
    "sequence": "ACAUAGCAAUAUUACGUAGU",
    "self-splicing fitness (ln)": -2.54
  },
  {
    "sequence": "GUCGAGCAAUAUUACGAAGC",
    "self-splicing fitness (ln)": -2.37
  },
  {
    "sequence": "UUUAAGCAAUAUUACGAACU",
    "self-splicing fitness (ln)": -2.51
  },
  {
    "sequence": "AAGCAGCAAUAUUACGUAUA",
    "self-splicing fitness (ln)": -2.85
  },
  {
    "sequence": "UCGGAGCAAUAUUACGACCG",
    "self-splicing fitness (ln)": -2.42
  },
  {
    "sequence": "CUCCAGCAAUAUUACGUUGU",
    "self-splicing fitness (ln)": -4.22
  },
  {
    "sequence": "CAGUAGCAAUAUUACGGCAC",
    "self-splicing fitness (ln)": -2.42
  },
  {
    "sequence": "UAAUAGCAAUAUUACGUUUG",
    "self-splicing fitness (ln)": -0.989
  },
  {
    "sequence": "UGUCAGCAAUAUUACGUAGG",
    "self-splicing fitness (ln)": -0.865
  },
  {
    "sequence": "UCUCAGCAAUAUUACGCGUG",
    "self-splicing fitness (ln)": -4.26
  },
  {
    "sequence": "UGACAGCAAUAUUACGGUAU",
    "self-splicing fitness (ln)": -3.58
  },
  {
    "sequence": "GUCCAGCAAUAUUACGGAGC",
    "self-splicing fitness (ln)": -2.17
  },
  {
    "sequence": "UAUGAGCAAUAUUACGGUCG",
    "self-splicing fitness (ln)": -2.52
  },
  {
    "sequence": "ACCGAGCAAUAUUACGAUAU",
    "self-splicing fitness (ln)": -3.68
  },
  {
    "sequence": "AUAAAGCAAUAUUACGAAUG",
    "self-splicing fitness (ln)": -1.48
  },
  {
    "sequence": "CACCAGCAAUAUUACGCCCG",
    "self-splicing fitness (ln)": -0.197
  }
]
